Cited source for all entries: patent US20240368131A1

- experimental.system: UniProt Q96P20
- Sequence (Q96P20 whole entry): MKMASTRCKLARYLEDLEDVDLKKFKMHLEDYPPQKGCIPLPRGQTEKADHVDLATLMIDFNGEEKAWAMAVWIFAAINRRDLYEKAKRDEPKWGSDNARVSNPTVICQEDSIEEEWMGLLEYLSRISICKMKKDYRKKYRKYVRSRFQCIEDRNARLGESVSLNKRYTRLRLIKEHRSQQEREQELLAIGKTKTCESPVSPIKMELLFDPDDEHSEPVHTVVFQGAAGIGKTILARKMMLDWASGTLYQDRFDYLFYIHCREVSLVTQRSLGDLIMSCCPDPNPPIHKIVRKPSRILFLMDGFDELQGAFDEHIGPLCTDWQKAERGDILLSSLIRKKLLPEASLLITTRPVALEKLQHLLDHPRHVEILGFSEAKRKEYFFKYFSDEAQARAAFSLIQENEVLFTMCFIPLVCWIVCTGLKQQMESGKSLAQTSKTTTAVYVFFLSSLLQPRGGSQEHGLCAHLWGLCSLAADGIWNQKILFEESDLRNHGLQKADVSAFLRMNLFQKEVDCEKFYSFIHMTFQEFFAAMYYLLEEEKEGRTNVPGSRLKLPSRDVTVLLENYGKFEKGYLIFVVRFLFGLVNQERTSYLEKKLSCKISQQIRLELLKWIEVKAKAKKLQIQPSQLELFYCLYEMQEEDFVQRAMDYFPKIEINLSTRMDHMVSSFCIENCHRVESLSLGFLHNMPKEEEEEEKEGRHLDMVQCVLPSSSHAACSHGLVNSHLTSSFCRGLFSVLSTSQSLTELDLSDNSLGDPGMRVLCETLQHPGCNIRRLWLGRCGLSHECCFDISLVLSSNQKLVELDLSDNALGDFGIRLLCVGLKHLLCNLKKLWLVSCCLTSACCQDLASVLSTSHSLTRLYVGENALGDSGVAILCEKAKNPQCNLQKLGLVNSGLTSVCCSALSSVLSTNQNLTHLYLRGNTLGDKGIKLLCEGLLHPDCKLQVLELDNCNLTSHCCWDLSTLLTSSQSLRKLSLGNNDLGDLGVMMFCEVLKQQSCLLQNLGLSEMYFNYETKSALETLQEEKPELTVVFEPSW
- experiment: Human Whole Blood (hWB) NLRP3 Assay (IL-1β MSD)
- Type: cell-based
- stated.conditions: LPS 1 μg/ml 4.5 h, ATP 30 min, class symbols
pIC50: −log10 of the molar value.
property.name: pIC50

molecule | property.name | observed.value
CC1(C)C(=O)N(CC(=O)NC[C@H](F)CC(=O)O)c2ccc(C3CC3)c(F)c21 [Compound 63A] | pIC50 | 6.00 to 6.30
CC1(C)C(=O)N(CC(=O)NCCCC(=O)O)c2ccc(C3CC3)c(F)c21 [Compound 56] | pIC50 | 6.00 to 6.30
CC(C)(CCc1nnn[nH]1)NC(=O)CN1C(=O)C(C)(C)c2cc(Br)cc(O)c21 [Compound 32] | pIC50 | < 6.00
